Quantity measured: melting point

Here's what some known entries look like.
{"Compound": "O=C(Nc1cncc(Cl)n1)c1cccc(Cl)c1 [Compound 3k]", "melting point": "166 to 167.1 °C"}
{"Compound": "Cc1ccc(C(=O)Nc2cncc(Cl)n2)cc1 [Compound 3h]", "melting point": "169.1 to 170 °C"}
{"Compound": "O=C(Nc1cncc(Cl)n1)c1cccc(C(F)(F)F)c1 [Compound 3n]", "melting point": "124.2 to 125 °C"}
{"Compound": "O=C(Nc1cnc(Cl)cn1)c1ccc(O)cc1 [Compound 2d]", "melting point": "210.9 to 212.6 °C"}
{"Compound": "Cc1ccc(C(=O)Nc2cnccn2)cc1 [Compound 1h]", "melting point": "163.3 to 166 °C"}
{"Compound": "O=C(Nc1cnc(Cl)cn1)c1cccc(Cl)c1 [Compound 2k]", "melting point": "150.7 to 151.9 °C"}

For the next question, use this compound.
Which melting point is listed for CC(=O)Oc1ccc(C(=O)Nc2cnccn2)cc1 [Compound 1d-Ac] ?
147.4 to 149.4 °C
